B1: Integrin beta-1 (Gallus gallus (Chicken)), P07228 (parent)
chain: MAETNLTLLTWAGILCCLIWSGSAQQGGSDCIKANAKSCGECIQAGPNCGWCKKTDFLQEGEPTSARCDDLAALKSKGCPEQDIENPRGSKRVLEDREVTNRKIGAAEKLKPEAITQIQPQKLVLQLRVGEPQTFSLKFKRAEDYPIDLYYLMDLSYSMKDDLENVKSLGTALMREMEKITSDFRIGFGSFVEKTVMPYISTTPAKLRNPCTGDQNCTSPFSYKNVLSLTSEGNKFNELVGKQHISGNLDSPEGGFDAIMQVAVCGDQIGWRNVTRLLVFSTDAGFHFAGDGKLGGIVLPNDGKCHLENNMYTMSHYYDYPSIAHLVQKLSENNIQTIFAVTEEFQAVYKELKNLIPKSAVGTLSSNSSNVIQLIIDAYNSLSSEVILENSKLPKEVTISYKSYCKNGVNDTQEDGRKCSNISIGDEVRFEINVTANECPKKGQNETIKIKPLGFTEEVEIHLQFICDCLCQSEGEPNSPACHDGNGTFECGACRCNEGRIGRLCECSTDEVNSEDMDAYCRRENSTEICSNNGECICGQCVCKKRENTNEVYSGKYCECDNFNCDRSNGLICGGNGICKCRVCECFPNFTGSACDCSLDTTPCMAGNGQICNGRGTCECGTCNCTDPKFQGPTCEMCQTCLGVCAEHKDCVQCRAFEKGEKKETCSQECMHFNMTRVESRGKLPQPVHPDPLSHCKEKDVGDCWFYFTYSVNSNGEASVHVVETPECPSGPDIIPIVAGVVAGIVLIGLALLLIWKLLMIIHDRREFAKFEKEKMNAKWDTGENPIYKSAVTTVVNPKYEGK

Variants of: B1
Measurement Setup: with flna_human FLNA

- Mutation Descriptor: "N797D"
  effect of a mutation on the interaction: "decreasing interaction"
- Mutation Descriptor: "D764V"
  effect of a mutation on the interaction: "decreasing interaction"
- Mutation Descriptor: "Y788E"
  effect of a mutation on the interaction: "disrupting interaction"
- Mutation Descriptor: "N785D"
  effect of a mutation on the interaction: "decreasing interaction"
- Mutation Descriptor: "P786A"
  effect of a mutation on the interaction: "decreasing interaction"
- Mutation Descriptor: "N797I"
  effect of a mutation on the interaction: "decreasing interaction"
- Mutation Descriptor: "Y788F"
  effect of a mutation on the interaction: "decreasing interaction"
- Mutation Descriptor: "Y788A"
  effect of a mutation on the interaction: "disrupting interaction"
